target: human GCG receptor (human, UniProt P47871 26-477); test: cell-based or functional assay
Sequence (P47871 26-477): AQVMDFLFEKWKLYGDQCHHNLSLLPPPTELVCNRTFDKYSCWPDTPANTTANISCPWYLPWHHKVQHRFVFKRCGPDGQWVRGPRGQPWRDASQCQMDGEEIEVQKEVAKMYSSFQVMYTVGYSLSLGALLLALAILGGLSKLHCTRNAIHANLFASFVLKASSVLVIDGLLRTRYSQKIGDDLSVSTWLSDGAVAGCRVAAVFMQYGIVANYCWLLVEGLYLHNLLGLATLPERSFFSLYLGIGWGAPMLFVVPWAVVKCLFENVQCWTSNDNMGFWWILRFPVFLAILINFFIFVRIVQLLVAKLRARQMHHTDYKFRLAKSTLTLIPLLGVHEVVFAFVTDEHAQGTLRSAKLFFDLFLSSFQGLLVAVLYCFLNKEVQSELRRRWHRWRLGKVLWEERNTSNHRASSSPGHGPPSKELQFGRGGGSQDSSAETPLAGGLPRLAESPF
Bridges are numbered along the chain shown (N, C = ends). Where no end group is shown, it is not given here. [ ]: non-standard residue; d: D form. Aib = CC(C)(N)C(=O)O
readout: In vitro activity relative to native peptide (%) vs. Glucagon
// note: answer is a bare numeric in %

Q) Quickly give me recorded In vitro activity relative to native peptide (%) vs. Glucagon for Y[Aib]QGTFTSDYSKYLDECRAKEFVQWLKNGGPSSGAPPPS (bridge 16-20) [triple agonist of SEQ ID NO: 24]
A) 9.3

Q) Quickly give me recorded In vitro activity relative to native peptide (%) vs. Glucagon for H[Aib]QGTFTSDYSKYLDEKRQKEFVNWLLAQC (bridge 16-20) [triple agonist of SEQ ID NO: 56]
A) 4.9

Q) Quickly give me recorded In vitro activity relative to native peptide (%) vs. Glucagon for H[Aib]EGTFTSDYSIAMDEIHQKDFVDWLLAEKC (bridge 16-20) [triple agonist of SEQ ID NO: 80]
A) 0

Q) Quickly give me recorded In vitro activity relative to native peptide (%) vs. Glucagon for H[Aib]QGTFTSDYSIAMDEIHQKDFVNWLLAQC (bridge 16-20) [triple agonist of SEQ ID NO: 55]
A) 0.7

Q) Quickly give me recorded In vitro activity relative to native peptide (%) vs. Glucagon for H[Aib]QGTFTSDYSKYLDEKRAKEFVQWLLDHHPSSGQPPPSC (bridge 16-20) [triple agonist of SEQ ID NO: 50]
A) 50.5

Q) Quickly give me recorded In vitro activity relative to native peptide (%) vs. Glucagon for H[Aib]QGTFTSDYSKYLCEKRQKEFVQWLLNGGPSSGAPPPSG (bridge 16-20) [triple agonist of SEQ ID NO: 36]
A) 0.39

Q) Quickly give me recorded In vitro activity relative to native peptide (%) vs. Glucagon for Y[Aib]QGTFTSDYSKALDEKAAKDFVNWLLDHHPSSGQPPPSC (lactam 16-20) [triple agonist of SEQ ID NO: 99]
A) 14.9
